target: SUMO-conjugating enzyme UBC9 (Homo sapiens)
procedureSummary: blockers of UBC9-mediated SUMO conjugation – biochemical, AlphaScreen, SUMOylation inhibitor project, confirmation (AID 2018)
particulars: AlphaScreen in vitro SUMOylation assay; at 35 µM; active compounds read high
Hit rate of the full screen: of about 1,200 compounds, about 600 (50%) were called active. The set was probably picked from earlier hits. The list shows a part of the results. Results with a measured potency or affinity are listed apart.
inhibition values, listed per item
A number alone suffices; assume %.

Query: Item `O=C(Nc1ccccc1F)Nc1cc(S(=O)(=O)N2CCOCC2)ccc1N1CCCC1` has what recorded inhibition?
Response: 13.5

Query: Item NC(=O)CC(NC(=O)Cc1ccc(Br)cc1)c1ccc(NCCOc2ccccc2)c([N+](=O)[O-])c1 (stereo not drawn) has what recorded inhibition?
Response: 10.7

* * *

target: SUMO-conjugating enzyme UBC9 (Homo sapiens)
procedureSummary: blockers of UBC9-mediated SUMO conjugation – biochemical, AlphaScreen, SUMOylation inhibitor project, confirmation (AID 2018)
particulars: AlphaScreen in vitro SUMOylation assay; at 35 µM
The campaign covered roughly 1,200 compounds. About 600 (50%) were called active. Rule as the data show it: active = inhibition above about 42%; inactive = the rest. So high a share suggests a set chosen from earlier hits. Some of the results follow. Potency and affinity values are given separately.
I would appreciate it if you answered using one of these outcomes: yes (1) = active, no (0) = inactive

Worked set:
| smilesData | assignedClass |
| --- | --- |
| CC(C)NC(=S)Nc1cccc2cnccc12 | no (0) |
| O=C(CNc1cccc2ccccc12)N/N=C/c1ccc(OC(=O)/C=C/c2ccco2)cc1 | no (0) |
| FC(F)(F)c1ccccc1NC(=S)Nc1cccc2cnccc12 | no (0) |
| O=C(Cc1cccs1)N/N=C/C=C\c1ccco1 | no (0) |
| Nc1cccc2cnccc12 | yes (1) |

Query: How was `Cc1c(C(=O)O)cccc1-c1ccc(/C=C2\SC(=O)NC2=O)o1` classified in this test?
Response: yes (1)

* * *

target: SUMO-conjugating enzyme UBC9 (Homo sapiens)
procedureSummary: blockers of UBC9-mediated SUMO conjugation – biochemical, AlphaScreen, SUMOylation inhibitor project, confirmation (AID 2018)
particulars: AlphaScreen in vitro SUMOylation assay; at 35 µM
The campaign covered roughly 1,200 compounds. About 600 (50%) were called active. Rule as the data show it: active = inhibition above about 42%; inactive = the rest. So high a share suggests a set chosen from earlier hits. Some of the results follow. Results with a measured potency or affinity are listed apart.
I would appreciate it if you answered using one of these outcomes: class 1 = active, class 0 = inactive

Worked set:
| compound | assignedClass |
| --- | --- |
| O=C(Nc1ccc(-n2nncc2-c2ccco2)cc1)c1cc2ccccc2oc1=O | class 0 |
| COc1ccc2c(c1)-c1nc(/N=C/c3cccc(OC)c3O)sc1CC2 | class 0 |
| c1ccc2c3c(cc(N4CCOCC4)c2c1)OC1(N2CCOCC2)CCCCC1O3 (stereo not drawn) | class 1 |
| Oc1ccc(N=Cc2ccc(-c3cccs3)s2)cc1 | class 1 |
| O=C(CNc1ccc2ccccc2c1)N/N=C/c1cc2ccccc2nc1Cl | class 0 |

Query: How was CC1=NN(c2ccc(Cl)cc2)C(=O)C1C(c1ccccc1O)c1c(C)[nH]n(-c2ccc(Cl)cc2)c1=O (stereo not drawn) classified in this test?
Response: class 1

Query: How was `CC1CCN(CCCn2c(=S)[nH]c3ccc(N4CCOCC4)cc3c2=O)CC1` classified in this test?
Response: class 0

Query: How was `O=C(CNc1cccc2ccccc12)N/N=C/c1ccc([N+](=O)[O-])cc1` classified in this test?
Response: class 0
